target: T-type calcium channel (Homo sapiens, UniProt O95180); test: T-type channel blocking, FLIPR data (Table 6); format: cell-based; settings: CAv3.2, inactivated state, read-out: CAv3.2 IC50 Inact.
Sequence (O95180 whole entry): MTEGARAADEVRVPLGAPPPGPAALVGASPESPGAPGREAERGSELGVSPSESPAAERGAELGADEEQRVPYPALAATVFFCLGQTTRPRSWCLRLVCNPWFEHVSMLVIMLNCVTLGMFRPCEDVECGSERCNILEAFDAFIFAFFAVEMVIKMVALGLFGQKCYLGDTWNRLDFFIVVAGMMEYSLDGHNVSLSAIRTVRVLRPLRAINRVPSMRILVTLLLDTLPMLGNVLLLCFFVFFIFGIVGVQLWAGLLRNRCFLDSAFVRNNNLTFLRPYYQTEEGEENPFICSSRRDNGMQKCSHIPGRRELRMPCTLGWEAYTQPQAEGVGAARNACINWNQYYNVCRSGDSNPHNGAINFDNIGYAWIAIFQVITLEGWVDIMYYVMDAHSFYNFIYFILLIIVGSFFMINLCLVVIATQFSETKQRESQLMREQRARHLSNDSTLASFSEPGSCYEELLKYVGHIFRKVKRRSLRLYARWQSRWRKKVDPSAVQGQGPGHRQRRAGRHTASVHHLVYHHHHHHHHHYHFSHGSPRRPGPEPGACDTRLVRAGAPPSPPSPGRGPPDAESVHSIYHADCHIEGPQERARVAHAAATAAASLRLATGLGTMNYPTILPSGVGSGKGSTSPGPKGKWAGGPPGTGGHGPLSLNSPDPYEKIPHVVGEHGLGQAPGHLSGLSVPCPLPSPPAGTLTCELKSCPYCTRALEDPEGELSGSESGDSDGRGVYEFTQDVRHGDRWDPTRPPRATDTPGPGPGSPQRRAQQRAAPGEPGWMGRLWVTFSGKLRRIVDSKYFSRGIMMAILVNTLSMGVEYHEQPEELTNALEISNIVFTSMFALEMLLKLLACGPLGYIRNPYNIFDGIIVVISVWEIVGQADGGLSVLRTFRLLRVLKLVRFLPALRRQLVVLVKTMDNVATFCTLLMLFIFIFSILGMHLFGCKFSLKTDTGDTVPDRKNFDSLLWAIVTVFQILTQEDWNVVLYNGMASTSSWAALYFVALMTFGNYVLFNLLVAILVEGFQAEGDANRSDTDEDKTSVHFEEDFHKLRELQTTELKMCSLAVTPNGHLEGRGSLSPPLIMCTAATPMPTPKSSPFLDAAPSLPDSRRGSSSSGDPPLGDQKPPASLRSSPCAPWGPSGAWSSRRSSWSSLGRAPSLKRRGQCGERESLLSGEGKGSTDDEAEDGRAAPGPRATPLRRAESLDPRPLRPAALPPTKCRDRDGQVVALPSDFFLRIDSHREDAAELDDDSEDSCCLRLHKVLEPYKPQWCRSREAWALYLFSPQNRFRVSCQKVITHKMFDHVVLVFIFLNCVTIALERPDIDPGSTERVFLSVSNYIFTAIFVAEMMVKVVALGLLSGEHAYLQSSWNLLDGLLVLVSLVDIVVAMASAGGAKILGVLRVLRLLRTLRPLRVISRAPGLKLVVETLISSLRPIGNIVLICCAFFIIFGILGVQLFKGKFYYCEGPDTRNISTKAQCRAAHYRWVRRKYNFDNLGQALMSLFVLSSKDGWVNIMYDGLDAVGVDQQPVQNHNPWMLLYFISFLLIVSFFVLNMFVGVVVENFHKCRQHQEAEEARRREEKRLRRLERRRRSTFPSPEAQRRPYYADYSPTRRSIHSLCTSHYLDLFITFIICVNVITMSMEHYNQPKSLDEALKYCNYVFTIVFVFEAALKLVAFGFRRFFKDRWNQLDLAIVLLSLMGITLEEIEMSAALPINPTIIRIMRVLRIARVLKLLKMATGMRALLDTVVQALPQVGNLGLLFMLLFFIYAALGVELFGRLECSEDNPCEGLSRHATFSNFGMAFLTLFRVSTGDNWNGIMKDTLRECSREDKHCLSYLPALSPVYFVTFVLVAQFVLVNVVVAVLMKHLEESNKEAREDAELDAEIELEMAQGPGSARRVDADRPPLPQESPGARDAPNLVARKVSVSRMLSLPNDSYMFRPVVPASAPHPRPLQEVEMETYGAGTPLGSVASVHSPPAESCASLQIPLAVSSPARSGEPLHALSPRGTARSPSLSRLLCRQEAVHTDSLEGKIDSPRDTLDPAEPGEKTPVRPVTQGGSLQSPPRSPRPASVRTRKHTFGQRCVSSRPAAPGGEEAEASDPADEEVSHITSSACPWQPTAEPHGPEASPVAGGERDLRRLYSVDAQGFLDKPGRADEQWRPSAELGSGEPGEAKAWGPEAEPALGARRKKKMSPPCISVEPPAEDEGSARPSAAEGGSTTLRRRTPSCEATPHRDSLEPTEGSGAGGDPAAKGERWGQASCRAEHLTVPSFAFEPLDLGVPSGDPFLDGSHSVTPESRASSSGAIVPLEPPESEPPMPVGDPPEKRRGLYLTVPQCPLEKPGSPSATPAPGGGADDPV
Overview of reported IC50 across a group of compounds:
Hi! Could you send only the number? It should be in µM, unit omitted.

Solved cases (6 shown):
compound: CC(C)(C[C@H]1C[C@H](NC(=O)c2ccc(C(F)(F)F)cn2)C1)S(=O)(=O)c1cccc(C(F)(F)F)c1 [Compound 722]
u: µM
numeric-value: 2.66

compound: N[C@@H]1CCCC[C@H]1C(=O)NC[C@H]1C[C@H](S(=O)(=O)c2cccc(Cl)c2)C1 [Compound 777]
u: µM
numeric-value: 10

compound: Cn1nc(C(F)(F)F)cc1C(=O)N1CC(CS(=O)(=O)c2cc(F)cc(C(F)(F)F)c2)C1 [Compound 748]
u: µM
numeric-value: 8.42

compound: CC(C)([C@H]1C[C@@H](NS(=O)(=O)c2ccc(F)c(C(F)(F)F)c2)C1)S(=O)(=O)c1cc(F)cc(C(F)(F)F)c1 [Compound 601]
u: µM
numeric-value: 4.97

compound: CC(C)([C@H]1C[C@@H](NS(=O)(=O)c2ccc(Cl)c(F)c2)C1)S(=O)(=O)c1cccc(C(F)(F)F)c1 [Compound 626]
u: µM
numeric-value: 2.58

compound: N[C@H]1CCCC[C@@H]1C(=O)NC[C@H]1C[C@H](S(=O)(=O)c2cccc(Cl)c2)C1 [Compound 779]
u: µM
numeric-value: 10

Entry CC(C)(C[C@H]1C[C@H](NC(=O)[C@@H]2CCCC[C@H]2N)C1)S(=O)(=O)c1cccc(C(F)(F)F)c1 [Compound 728] has what IC50? 10

Given the entry CC(C)([C@H]1C[C@H](NS(=O)(=O)c2ccc(C(F)(F)F)cc2Cl)C1)S(=O)(=O)c1cc(F)cc(C(F)(F)F)c1 [Compound 623] , report its measured IC50. 1.54

Query (compound): CC(C)([C@H]1C[C@H](NC(=O)c2ccc(OCC(F)(F)F)nc2)C1)S(=O)(=O)c1cccc(C(F)(F)F)c1 [Compound 674] ; field requested: IC50 2.39

* * *

target: T-type calcium channel (Homo sapiens); assay: T-type channel blocking, FLIPR data (Table 6); format: cell-based; conditions: CAv3.2, inactivated state, read-out: CAv3.2 IC50 Inact.
observable: log10 IC50 (log10 of the value in µM)
Scale: decimal log of IC50, IC50 in µM.

Consider the worked cases shown below.
compound-structure-string: CC(C)([C@H]1C[C@H](NS(=O)(=O)c2ccc(C(F)(F)F)cc2)C1)S(=O)(=O)c1cc(F)cc(C(F)(F)F)c1
log10 IC50: 0.34
//
compound-structure-string: CC(C)(C[C@H]1C[C@H](NC(=O)c2ccc(Cl)cn2)C1)S(=O)(=O)c1cccc(C(F)(F)F)c1
log10 IC50: 0.31
//
compound-structure-string: CC(C)([C@H]1C[C@@H](CNC(=O)c2ccc(Cl)c(OC(F)(F)F)c2)C1)S(=O)(=O)c1cccc(C(F)(F)F)c1
log10 IC50: -0.77
//
compound-structure-string: CC(C)(C[C@H]1C[C@H](NC(=O)c2ncc(C(F)(F)F)cc2S(C)(=O)=O)C1)S(=O)(=O)c1cccc(C(F)(F)F)c1
log10 IC50: 1.00
//
compound-structure-string: CC(C)([C@H]1C[C@H](NS(=O)(=O)c2ccc(F)c(Cl)c2)C1)S(=O)(=O)c1cc(F)cc(C(F)(F)F)c1
log10 IC50: 0.55

Could you now consider this next compound?
What log10 IC50 value was documented for this compound, "CNC1(CC(=O)N[C@H]2C[C@H](C(C)(C)S(=O)(=O)c3cccc(OC(F)(F)F)c3)C2)CCCCC1" ? 1.00
